Measurement setup: in ethanol, 303.15 K
Measured attribute: solubility (mole fraction)
Write no unit; give the number alone.

Lookup: State its solubility (mole fraction): "O=S(=O)([O-])c1cccc2c(S(=O)(=O)[O-])cccc12.[Na+].[Na+]"
Found: 0.00011

---

Measurement setup: in methanol, 283.15 K
Measured attribute: solubility (mole fraction)

Lookup: State its solubility (mole fraction): "O=S(=O)([O-])c1cccc2c(S(=O)(=O)[O-])cccc12.[Na+].[Na+]"
Found: 0.00017

---

Measurement setup: in acetone, 293.15 K
Measured attribute: solubility (mole fraction)
Write no unit; give the number alone.

Lookup: State its solubility (mole fraction): "O=S(=O)([O-])c1cccc2c(S(=O)(=O)[O-])cccc12.[Na+].[Na+]"
Found: 5.92e-05

---

Measurement setup: in acetone, 283.15 K
Measured attribute: solubility (mole fraction)
Write no unit; give the number alone.

Lookup: State its solubility (mole fraction): "O=S(=O)([O-])c1cccc2c(S(=O)(=O)[O-])cccc12.[Na+].[Na+]"
Found: 5.45e-05

---

Measurement setup: in isopropanol, 293.15 K
Measured attribute: solubility (mole fraction)
Write no unit; give the number alone.

Lookup: State its solubility (mole fraction): "O=S(=O)([O-])c1cccc2c(S(=O)(=O)[O-])cccc12.[Na+].[Na+]"
Found: 5.68e-05

---

Measurement setup: in water, 323.15 K
Measured attribute: solubility (mole fraction)
Write no unit; give the number alone.

Lookup: State its solubility (mole fraction): "O=S(=O)([O-])c1cccc2c(S(=O)(=O)[O-])cccc12.[Na+].[Na+]"
Found: 0.0106

---

Measurement setup: in acetone, 313.15 K
Measured attribute: solubility (mole fraction)
Write no unit; give the number alone.

Lookup: State its solubility (mole fraction): "O=S(=O)([O-])c1cccc2c(S(=O)(=O)[O-])cccc12.[Na+].[Na+]"
Found: 9.49e-05

---

Measurement setup: in isopropanol, 283.15 K
Measured attribute: solubility (mole fraction)

Lookup: State its solubility (mole fraction): "O=S(=O)([O-])c1cccc2c(S(=O)(=O)[O-])cccc12.[Na+].[Na+]"
Found: 2.55e-05

---

Measurement setup: in water, 293.15 K
Measured attribute: solubility (mole fraction)
Write no unit; give the number alone.

Lookup: State its solubility (mole fraction): "O=S(=O)([O-])c1cccc2c(S(=O)(=O)[O-])cccc12.[Na+].[Na+]"
Found: 0.00664

---

Measurement setup: in methanol, 303.15 K
Measured attribute: solubility (mole fraction)
Write no unit; give the number alone.

Lookup: State its solubility (mole fraction): "O=S(=O)([O-])c1cccc2c(S(=O)(=O)[O-])cccc12.[Na+].[Na+]"
Found: 0.000251

---

Measurement setup: in methanol, 323.15 K
Measured attribute: solubility (mole fraction)

Lookup: State its solubility (mole fraction): "O=S(=O)([O-])c1cccc2c(S(=O)(=O)[O-])cccc12.[Na+].[Na+]"
Found: 0.00028

---

Measurement setup: in water, 303.15 K
Measured attribute: solubility (mole fraction)
Write no unit; give the number alone.

Lookup: State its solubility (mole fraction): "O=S(=O)([O-])c1cccc2c(S(=O)(=O)[O-])cccc12.[Na+].[Na+]"
Found: 0.00784

---

Measurement setup: in water, 313.15 K
Measured attribute: solubility (mole fraction)
Write no unit; give the number alone.

Lookup: State its solubility (mole fraction): "O=S(=O)([O-])c1cccc2c(S(=O)(=O)[O-])cccc12.[Na+].[Na+]"
Found: 0.00919

---

Measurement setup: in isopropanol, 313.15 K
Measured attribute: solubility (mole fraction)
Write no unit; give the number alone.

Lookup: State its solubility (mole fraction): "O=S(=O)([O-])c1cccc2c(S(=O)(=O)[O-])cccc12.[Na+].[Na+]"
Found: 8.74e-05

---

Measurement setup: in ethanol, 323.15 K
Measured attribute: solubility (mole fraction)

Lookup: State its solubility (mole fraction): "O=S(=O)([O-])c1cccc2c(S(=O)(=O)[O-])cccc12.[Na+].[Na+]"
Found: 0.000184
